tested on: AGS; test: Induction of apoptosis in human AGS cells at 100 uM after 24 hrs by FACS; format: functional
Property: Activity (%)
Give the quantity in %, number only.

// worked examples, Activity included
Record smiles: C=C1C(=O)O[C@H]2/C=C(\C)CC/C=C(\C)C[C@H](OC(C)=O)[C@@H]12
Assayed target: AGS
Display unit: %
Activity: 43.11

Record smiles: CC(=O)OCCC[C@H](C)C1=C[C@@H]2[C@H](C)C(=O)O[C@@H]2C[C@@]1(C)O
Assayed target: AGS
Display unit: %
Activity: 9.81

Record smiles: C=C1C(=O)O[C@@H]2CC(C)=C([C@@H](C)CCCO)[C@H](O)[C@H]12
Assayed target: AGS
Display unit: %
Activity: 10.37

Kindly consider the entry below.
Problem: Which value of Activity has been reported for `C=C1C(=O)O[C@@H]2CC(C)=C([C@@H](C)CCCOC(C)=O)[C@H](OC(C)=O)[C@H]12` in the records?
Result: 8.12

* * *

test system: HL-60; assay: Induction of apoptosis in human HL60 cells at 5 uM after 24 hrs by FACS; assay type: functional
Values of Activity greater than or equal to 7% map to Satisfied; values below map to Not satisfied.

Compound: C=C1C(=O)O[C@H]2/C=C(\C)CC/C=C(\C)C[C@H](O)[C@@H]12
Class assignment: Satisfied

Problem: Hi, just wondering whether C=C1C(=O)O[C@@H]2CC(C)=C([C@@H](C)CCCO)[C@H](OC(=O)C(C)CC)[C@H]12 (some centres not stated) shows Activity of 7% or higher.
Result: Not satisfied

Problem: Lookup `CC(=O)OCCC[C@H](C)C1=C[C@@H]2[C@H](C)C(=O)O[C@@H]2C[C@@]1(C)O`
Result: Not satisfied

Problem: Lookup `C=C1C(=O)O[C@H]2/C=C(\C)CC/C=C(\C)C[C@H](OC(C)=O)[C@@H]12`
Result: Satisfied

Problem: Lookup `C=C1C(=O)O[C@@H]2CC(C)=C([C@@H](C)CCCOC(C)=O)[C@H](OC(C)=O)[C@H]12`
Result: Not satisfied

Problem: Lookup `C=C1C(=O)O[C@@H]2CC(C)=C([C@@H](C)CCCOC(C)=O)[C@H](O)[C@H]12`
Result: Not satisfied

Problem: Lookup `C=C1C(=O)O[C@@H]2CC(C)=C([C@@H](C)CCCO)[C@H](O)[C@H]12`
Result: Satisfied

* * *

test system: COLO 205; experiment: Induction of apoptosis in human COLO205 cells at 50 uM after 24 hrs by FACS; type: functional
Values of Activity greater than or equal to 30% map to Criterion met; values below map to Criterion not met.

Would you please look over these solved cases?
Compound: C=C1C(=O)O[C@H]2/C=C(\C)CC/C=C(\C)C[C@H](O)[C@@H]12
Class assignment: Criterion met
//
Compound: C=C1C(=O)O[C@@H]2CC(C)=C([C@@H](C)CCCO)[C@H](O)[C@H]12
Class assignment: Criterion not met
//
Compound: C=C1C(=O)O[C@@H]2CC(C)=C([C@@H](C)CCCOC(C)=O)[C@H](OC(C)=O)[C@H]12
Class assignment: Criterion not met
//
Compound: C=C1C(=O)O[C@H]2/C=C(\C)CC/C=C(\C)C[C@H](OC(C)=O)[C@@H]12
Class assignment: Criterion met

Problem: Hi, just wondering whether `C=C1C(=O)O[C@@H]2CC(C)=C([C@@H](C)CCCOC(C)=O)[C@H](O)[C@H]12` shows Activity of 30% or higher.
Result: Criterion not met

Problem: Lookup C=C1C(=O)O[C@@H]2CC(C)=C([C@@H](C)CCCO)[C@H](OC(=O)C(C)CC)[C@H]12 (some centres not stated)
Result: Criterion not met

Problem: Lookup `CC(=O)OCCC[C@H](C)C1=C[C@@H]2[C@H](C)C(=O)O[C@@H]2C[C@@]1(C)O`
Result: Criterion not met

* * *

test system: HL-60; experiment: Cytotoxicity against human HL60 cells after 24 hrs by trypan blue exclusion assay; format: functional, cell-based; details: HL-60, 24 h
Property: IC50 (µM)
Give the quantity in µM, number only.

// worked examples, IC50 included
Molecule: C=C1C(=O)O[C@H]2/C=C(\C)CC/C=C(\C)C[C@H](O)[C@@H]12
Display unit: µM
Result: 27.4

Molecule: C=C1C(=O)O[C@@H]2CC(C)=C([C@@H](C)CCCOC(C)=O)[C@H](OC(C)=O)[C@H]12
Display unit: µM
Result: 35.3

Molecule: C=C1C(=O)O[C@H]2/C=C(\C)CC/C=C(\C)C[C@H](OC(C)=O)[C@@H]12
Display unit: µM
Result: 16.2

Problem: # query: IC50 | item `CC(=O)OCCC[C@H](C)C1=C[C@@H]2[C@H](C)C(=O)O[C@@H]2C[C@@]1(C)O` | system: HL-60
Result: 85.8

Problem: Lookup C=C1C(=O)O[C@@H]2CC(C)=C([C@@H](C)CCCO)[C@H](OC(=O)C(C)CC)[C@H]12 (some centres not stated)
Result: 47.1

* * *

tested on: AGS; test: Induction of apoptosis in human AGS cells at 10 uM after 24 hrs by FACS; format: functional
Property: Activity
Report the figure along with its unit, number first.

// worked examples, Activity included
Compound: C=C1C(=O)O[C@H]2/C=C(\C)CC/C=C(\C)C[C@H](O)[C@@H]12 [NEOBRITANNILACTONE B]
Result: 8.66%
//
Compound: C=C1C(=O)O[C@@H]2CC(C)=C([C@@H](C)CCCO)[C@H](O)[C@H]12 [BRITANNILACTONE]
Result: 10.37%
//
Compound: CC(=O)OCCC[C@H](C)C1=C[C@@H]2[C@H](C)C(=O)O[C@@H]2C[C@@]1(C)O [NEOBRITANNILACTONE A]
Result: 9.83%
//
Compound: C=C1C(=O)O[C@@H]2CC(C)=C([C@@H](C)CCCO)[C@H](OC(=O)C(C)CC)[C@H]12 (some centres not stated)
Result: 11.38%

Problem: Which value of Activity has been reported for C=C1C(=O)O[C@H]2/C=C(\C)CC/C=C(\C)C[C@H](OC(C)=O)[C@@H]12 [ACETYL NEOBRITANNILACTONE B] in the records?
Result: 7.87%

Problem: Lookup `C=C1C(=O)O[C@@H]2CC(C)=C([C@@H](C)CCCOC(C)=O)[C@H](OC(C)=O)[C@H]12`
Result: 5.79%

Problem: Lookup `C=C1C(=O)O[C@@H]2CC(C)=C([C@@H](C)CCCOC(C)=O)[C@H](O)[C@H]12`
Result: 17.28%

* * *

Examples of compounds with documented Activity follow.
test system: COLO 205; experiment: Induction of apoptosis in human COLO205 cells at 25 uM after 24 hrs by FACS; assay type: functional
Give the quantity in %, number only.

Record smiles: C=C1C(=O)O[C@H]2/C=C(\C)CC/C=C(\C)C[C@H](O)[C@@H]12
Assayed target: COLO 205
Activity, %: 41.62

Problem: Which value of Activity has been reported for `CC(=O)OCCC[C@H](C)C1=C[C@@H]2[C@H](C)C(=O)O[C@@H]2C[C@@]1(C)O` in the records?
Result: 4.28

Problem: Lookup `C=C1C(=O)O[C@@H]2CC(C)=C([C@@H](C)CCCOC(C)=O)[C@H](O)[C@H]12`
Result: 16.48
